System: 598228-144-R-J1-PDC complex spheroid viability;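 note: spheroids exposed to the agents for one week before reading; percent of vehicle DMSO control viability so 100% = untreated growth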
method: Anticancer human tumor 598228-144-R-J1-PDC patient-derived serous endometrial adenocarcinoma cell line growth inhibition [GQUAD]
test-context: second compound 0.1 µM; first compound 3.16 µM; active compounds read low
measurement-kind: viability, T/C (%)
Give a bare numeral; the unit % is implied.

>>> observed_measurement("COc1ncnc(C2CC2)c1-c1ncc2cnn(Cc3ccc(-c4nc(C(F)(F)F)cn4C(C)C)cc3)c2n1 + Cc1cnc(CNC(=O)c2c(=O)c3ccc(N4CCCN(C)CC4)nc3n3c2sc2ccccc23)cn1")
63.9
>>> observed_measurement("CC(C)n1c(=O)n(C)c2cnc3cc(F)c(-c4ccc(OCCCN5CCCCC5)nc4)cc3c21 + Cc1cnc(CNC(=O)c2c(=O)c3ccc(N4CCCN(C)CC4)nc3n3c2sc2ccccc23)cn1")
61.3
>>> observed_measurement("COc1cc(C2c3cc4c(cc3C(OC3OC5COC(C)OC5C(O)C3O)C3COC(=O)C23)OCO4)cc(OC)c1O (stereo not given) + Cc1[nH]c2ccc(F)cc2c1-c1nc2c3cccnc3c3ncccc3c2[nH]1")
68.7
>>> observed_measurement("C=CC(=O)N1CCN(c2nc(=O)n(-c3c(C)ccnc3C(C)C)c3nc(-c4c(O)cccc4F)c(F)cc23)C(C)C1 (stereo not given) + Cc1[nH]c2ccc(F)cc2c1-c1nc2c3cccnc3c3ncccc3c2[nH]1")
136

Pending compound:
Ask | What does the data say about its viability, T/C? Entry: Cc1cccc(N(C)C(=O)C2C(O)CCN2c2nc(C)cc(C(F)(F)F)c2C#N)c1 (stereo not given) + Cc1cnc(CNC(=O)c2c(=O)c3ccc(N4CCCN(C)CC4)nc3n3c2sc2ccccc23)cn1
Reply | 86.6
